# ASSAY_SYSTEM: human PI3Kδ enzyme (Homo sapiens)
# Construct: purchased Millipore Corporation 14-604
# Sequence (O00329 whole entry): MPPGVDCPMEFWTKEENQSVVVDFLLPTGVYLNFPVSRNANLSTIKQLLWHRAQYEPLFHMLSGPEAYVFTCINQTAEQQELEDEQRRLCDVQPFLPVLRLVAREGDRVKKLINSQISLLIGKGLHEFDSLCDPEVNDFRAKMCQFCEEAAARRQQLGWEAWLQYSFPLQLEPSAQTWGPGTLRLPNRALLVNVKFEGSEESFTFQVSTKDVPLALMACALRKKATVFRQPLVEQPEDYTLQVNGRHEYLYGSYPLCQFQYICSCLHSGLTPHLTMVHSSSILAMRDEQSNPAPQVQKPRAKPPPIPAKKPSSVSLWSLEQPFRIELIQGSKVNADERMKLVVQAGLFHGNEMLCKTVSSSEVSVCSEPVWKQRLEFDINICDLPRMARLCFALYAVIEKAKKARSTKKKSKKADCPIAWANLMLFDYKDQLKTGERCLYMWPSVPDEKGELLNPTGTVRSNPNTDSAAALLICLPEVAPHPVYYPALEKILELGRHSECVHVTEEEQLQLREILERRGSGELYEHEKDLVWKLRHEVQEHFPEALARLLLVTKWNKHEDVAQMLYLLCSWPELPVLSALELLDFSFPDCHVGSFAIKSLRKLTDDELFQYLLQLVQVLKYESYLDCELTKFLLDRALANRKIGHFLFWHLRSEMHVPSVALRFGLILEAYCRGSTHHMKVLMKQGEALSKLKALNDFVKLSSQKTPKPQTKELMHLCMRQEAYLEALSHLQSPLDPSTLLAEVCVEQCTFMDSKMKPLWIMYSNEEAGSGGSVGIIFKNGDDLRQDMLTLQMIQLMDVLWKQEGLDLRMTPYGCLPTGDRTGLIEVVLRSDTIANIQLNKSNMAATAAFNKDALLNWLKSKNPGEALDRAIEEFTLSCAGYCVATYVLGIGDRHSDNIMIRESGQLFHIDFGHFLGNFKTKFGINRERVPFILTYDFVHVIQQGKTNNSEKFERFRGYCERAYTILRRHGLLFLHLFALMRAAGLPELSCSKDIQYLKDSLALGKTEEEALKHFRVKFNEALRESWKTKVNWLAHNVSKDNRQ
# Sequence (P27986 whole entry partner): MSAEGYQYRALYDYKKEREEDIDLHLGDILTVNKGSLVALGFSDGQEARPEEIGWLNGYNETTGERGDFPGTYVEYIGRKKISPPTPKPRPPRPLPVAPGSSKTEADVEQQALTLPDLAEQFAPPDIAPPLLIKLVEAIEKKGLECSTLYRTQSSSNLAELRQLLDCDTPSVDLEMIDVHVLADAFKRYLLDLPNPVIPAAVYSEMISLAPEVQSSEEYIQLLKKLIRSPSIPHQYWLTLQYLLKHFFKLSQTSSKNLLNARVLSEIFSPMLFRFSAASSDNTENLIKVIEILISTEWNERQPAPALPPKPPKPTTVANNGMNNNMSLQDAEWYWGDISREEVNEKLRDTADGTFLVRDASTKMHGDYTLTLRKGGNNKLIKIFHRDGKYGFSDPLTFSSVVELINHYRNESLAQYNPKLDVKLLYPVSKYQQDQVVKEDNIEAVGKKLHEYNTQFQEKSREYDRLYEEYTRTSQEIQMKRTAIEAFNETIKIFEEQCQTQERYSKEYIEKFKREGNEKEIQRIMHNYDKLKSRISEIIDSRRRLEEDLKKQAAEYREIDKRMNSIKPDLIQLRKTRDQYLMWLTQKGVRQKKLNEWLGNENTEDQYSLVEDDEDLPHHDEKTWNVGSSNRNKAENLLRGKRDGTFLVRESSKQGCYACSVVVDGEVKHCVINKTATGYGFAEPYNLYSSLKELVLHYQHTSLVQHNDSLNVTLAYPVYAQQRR
# PROTOCOL: PI3Kδ enzyme inhibitory activity (PI3-Kinase HTRF Assay kit)
# Assay type: biochemical
# EXPERIMENTAL_CONDITIONS: human PI3Kδ 10 ng/well, ATP 30 μM, PIP2 10 μM, room temperature 30 minutes
Where a name gives a salt, the structure may show the parent alone.
MEASUREMENT_NAME: IC50 (nM)

Use these answered entries as a reference point.
CC(C)(C)OC(=O)N1CCC(N2CCC(CNc3nc(N4CCOCC4)cc(-n4c(C(F)F)nc5ccccc54)n3)CC2)CC1 = 12
FC(F)c1nc2ccccc2n1-c1cc(N2CCOCC2)nc(NCC2CCN(CC3CCOCC3)CC2)n1 = 27
FC(F)c1nc2ccccc2n1-c1cc(N2CCOCC2)nc(NCC2CCN([C@H]3CC[C@H](F)CC3)CC2)n1 [Example 43-1, dihydrochloride] = 8

A = CN(C)CC(=O)N[C@H]1CCC[C@H](Nc2cc(-n3c(C(F)F)nc4ccccc43)nc(N3CCOCC3)n2)C1
B = COc1ccc(N2CCC(CNc3nc(N4CCOCC4)cc(-n4c(C(F)F)nc5ccccc54)n3)CC2)cc1
Inquiry: Which value of IC50 is numerically greater: that of A or that of B ? Selection: enter the item's label.
Reply text: B
(B: 8.5 nM, A: 5.7 nM)

a = C[C@@H]1C[C@@H](N2CCC(CNc3nc(N4CCOCC4)cc(-n4c(C(F)F)nc5ccccc54)n3)CC2)C[C@H](C)O1
b = CCOC(=O)N[C@@H]1CCN([C@H]2CC[C@H](Oc3cc(-n4c(C(F)F)nc5ccccc54)nc(N4CCOCC4)n3)CC2)C1=O
c = FC(F)c1nc2ccccc2n1-c1cc(N2CCOCC2)nc(NCCC2CCN(Cc3ccccc3)CC2)n1
Inquiry: Please list the entries, largest IC50 first. Enter labels, ranked according to the request.
Reply text: c, b, a

====

Form: system (Human PI3Kα (Homo sapiens)), quantity (pIC50), values below.
pIC50: −log10 of the molar value.

NC1(C(=O)N[C@H]2CC[C@H](Oc3cc(-n4c(C(F)F)nc5ccccc54)nc(N4CCOCC4)n3)CC2)CCC1 [Example 215] = < 5.00
NC1(C(=O)N[C@H]2CC[C@H](Oc3cc(-n4c(C(F)F)nc5ccccc54)nc(N4CCOCC4)n3)CC2)CCCC1 [Example 216] = < 5.00

# context switch: different compound, same pIC50
Inquiry: API: value(readout= pIC50, system= Human PI3Kα (Homo sapiens), query= O=C(CNC1CCOCC1)N[C@H]1CC[C@H](Oc2cc(-n3c(C(F)F)nc4ccccc43)nc(N3CCOCC3)n2)CC1 [Example 136] )
Reply text: < 5.00
